Assay: Study DG-031-204: steady state DG-031 plasma concentrations
Type: in vivo, human
Conditions: human, plasma, oral, 500 mg, 500 mg TID, 2 hr post dose; read-out: Steady state DG-031 exposure, Geometric Mean
reported.metric: concentration at 2 h

Ask: Return concentration at 2 h for the following molecule: O=C(O)[C@@H](c1ccc(OCc2ccc3ccccc3n2)cc1)C1CCCC1
Reply: 10100 ng/mL

----------
Test: Study DG-031-204: steady state DG-031 plasma concentrations
Format: in vivo, human
Conditions: human, plasma, oral, 500 mg, 500 mg TID, 0 hr post dose; read-out: Steady state DG-031 exposure, Geometric Mean
Experimental: Blood samples were collected for determining DG-031 concentrations in a subset of patients (n=22). Samples were collected just prior to dosing and at 0.5, 1, 2, 4, and 6 hours following administration of DG-031 500 mg BID or TID.
reported.metric: concentration at 0 h

Ask: Return concentration at 0 h for the following molecule: O=C(O)[C@@H](c1ccc(OCc2ccc3ccccc3n2)cc1)C1CCCC1 [DG-031]
Reply: 6900 ng/mL
